// provenance: PubChem BioAssay

assay: CREB reporter modulators without forskolin, primary screen, cell-based, PC12, CRE-LacZ reporter, unstimulated (AID 1145); conditions: no forskolin, luminescence, 4.5 h, higher = more signal, called active from +8 up or from −8 down
Entries and their z-score values follow.
The answer should be a number; do not append a unit.

CCOC(=O)[C@H](CC(C)C)NC(=O)CCC1CC(OC(=O)NCc2cccc3ccccc23)CC2(CCCC(COC(=O)NCc3ccccc3)O2)O1 (some centres undefined)	0.286
C[C@@H](c1ccccc1)N1C(=O)[C@H]2[C@H]3[C@H](O)[C@H](O)CC(=O)[C@@H]3CC[C@H]2C1=O	1.25
C[C@@H](ON=C1[C@H]2CCn3c(=O)n(-c4ccccc4)c(=O)n3[C@H]2[C@H](O)[C@@H]2O[C@H]12)c1cn([C@H](CO)Cc2ccccc2)nn1	-0.157

As a next step, examine the molecule that follows.
# input Entry under review: CCOC(=O)NN=C1C[C@@H](O)[C@@H](O)[C@@H]2[C@@H]3C(=O)N(Cc4ccccc4)C(=O)[C@@H]3CC[C@@H]12 . Reported z-score?
# output 0.52

* * *

test system: Wnt5a (protein binding on small-molecule microarray); test: Wnt5a binders on small-molecule microarray, primary screen, biophysical, 635/667 nm fluorescence (AID 1142); details: 635 nm fluorescence, higher = more signal;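 also: fluorescence read at 667 nm with signal to noise per printed feature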
Note to self: class labels come from recorded composite z-score, ranges listed here: low value (below -0.09), medium value (-0.09 to below 0.1), high value (0.1 or more)

# input Looking at CC(C)C(=O)N[C@@H]1CCCN1C(=O)C=Cc1ccccc1 , which class would you pick?
# output medium value

* * *

molecular target: Concanavalin-A (Canavalia ensiformis); assay: ConA small-molecule binders, primary screen, artefact control for SMM control protein annotation, biochemical, small-molecule microarray, Alexa647 label, 635 nm (AID 1127); conditions: ConA-A647 binding fluorescence, higher = more signal;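 also: z combines 667 nm emission intensity with signal-to-noise across three replicate slides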
Assay Readout: composite z-score
Keep the answer to the number alone.

COC(=O)[C@H](C)NC(=O)CCC1CC(OC(=O)NCCc2ccc(F)cc2)CC2(CCCC(COC(=O)NCCCN3CCCC3=O)O2)O1 (stereo not given in full)	1.07
O=C(NN=C1C[C@@H](O)[C@@H](O)[C@@H]2[C@@H]3C(=O)N(Cc4ccc5c(c4)OCO5)C(=O)[C@@H]3CC[C@H]12)OCc1ccccc1	-0.232
CCOC(=O)NN=C1C[C@@H](O)[C@@H](O)[C@@H]2[C@@H]3C(=O)N(Cc4ccccc4)C(=O)[C@@H]3CC[C@@H]12	0.42

# input // returns reported composite z-score for input CC(C)CON=C1C[C@@H](O)[C@@H](O)[C@@H]2[C@@H]3C(=O)N(c4cccc(Oc5ccccc5)c4)C(=O)[C@@H]3CC[C@H]12
# output 0.882

# input Item under review: C=C(C)C(=O)OC[C@@H]1CN2[C@@H](CC[C@@H](C)[C@@H]2c2ccc(Br)cc2)C(=O)O1 . Reported composite z-score?
# output 0.363

* * *

experiment: HepG2 cell viability effects, profiling panel, calcein-AM fluorescence, 48 h, basal (AID 1164); conditions: higher = more signal; also: test concentration not given here
Assay Readout: z-score
API doc: respond with a numeric literal and nothing else, no unit.

Below, each entry is followed by its recorded z-score result.
Cc1ccc(S(=O)(=O)N[C@H]2COC(=O)[C@@H](C)COC(=O)[C@H](C)NC(=O)CC=C[C@H]2C)cc1	-0.107
COC(=O)[C@H](C)NC(=O)CCC1CC(OC(=O)NCCc2ccc(F)cc2)CC2(CCCC(COC(=O)NCCCN3CCCC3=O)O2)O1 (some centres not stated)	-1.32
CCOC(=O)[C@H](Cc1ccccc1)NC(=O)CCC1CC(OC(=O)NCc2cccc3ccccc23)CC2(CCCC(COC(=O)NCCCN3CCCC3=O)O2)O1 (some centres not stated)	-0.93

# input Sample O=C1[C@H]2[C@H]3[C@H](O)[C@H](O)CC(=NOCc4ccccc4)[C@H]3CC[C@H]2C(=O)N1Cc1ccccc1 — what was its z-score?
# output -0.977

# input I have this compound here, CCOC(=O)NN=C1C[C@@H](O)[C@@H](O)[C@@H]2[C@@H]3C(=O)N(Cc4ccc5c(c4)OCO5)C(=O)[C@@H]3CC[C@@H]12 , and I need its recorded z-score.
# output 0.32

# input // z-score lookup, key: CC(C)CON=C1C[C@@H](O)[C@@H](O)[C@@H]2[C@@H]3C(=O)N(c4cccc(Oc5ccccc5)c4)C(=O)[C@@H]3CC[C@H]12
# output -0.641

# input Entry CC(C)=NOCc1ccc(-c2cn([C@@H]3COC[C@H]3O)nn2)cc1 has what z-score?
# output 0.239
